Source: patent US5384417A

Quick reference for % Inhibition of Glycosidase Activity, β-Glucosidase among some molecules
# Tested on: β-Glucosidase
# Protocol Summary: inhibition of human liver β-glucosidase
# Assay type: biochemical
# Condition Info: 1 mM inhibitor
# output: bare number, implied unit %

# count of solved cases: 4
[
  {
    "Molecule": "OC[C@H]1N[C@H](CO)[C@@H](O)C(O)[C@@H]1O (some centres unmarked)",
    "Uom": "%",
    "Meas Value": 0
  },
  {
    "Molecule": "OC[C@@H](O)[C@H]1N[C@H](CO)[C@@H](O)[C@H]1O",
    "Uom": "%",
    "Meas Value": 23
  },
  {
    "Molecule": "OC[C@H]1NC[C@@H](O)[C@@H](O)[C@@H]1O",
    "Uom": "%",
    "Meas Value": 0
  },
  {
    "Molecule": "NC[C@H]1O[C@H]([C@H](O)CO)[C@H](O)[C@@H]1O",
    "Uom": "%",
    "Meas Value": 14
  }
]

Turning to the following molecule.
Reported % Inhibition of Glycosidase Activity, β-Glucosidase ( "OC[C@@H](O)[C@H]1NC[C@@H](O)[C@H]1O" ) = 16
